Data provenance is ChEMBL document CHEMBL5321256.

# Test system: Staphylococcus epidermidis
# PROCEDURE_TEXT: Antibacterial activity against Staphylococcus epidermidis measured after 18 to 20 hrs by broth microdilution method
# Assay type: functional
# MEASUREMENT_CONTEXT: time 18-20 hrs
MIC values, listed per item
The answer is to be given in µM; state only the numeric part.

| COMPOUND | ASSAYED_TARGET | MEASUREMENT_NAME | UNIT_SPEC | RESULT_NUMBER |
| --- | --- | --- | --- | --- |
| C=C[C@@H]1C[C@H](C)C[C@H](C)[C@H]1c1c(O)ccn(O[C@@H]2C(C(=O)OC)=C[C@@H](O)[C@@H](O)[C@H]2O)c1=O | Staphylococcus epidermidis | MIC | µM | 128 |

Please examine the following record next.
Prompt line: For the compound O=C(O)c1cn(C2CC2)c2cc(N3CCNCC3)c(F)cc2c1=O [CIPROFLOXACIN] , report MIC.
Response line: 1.33
